- system: PI5P4Kα (Homo sapiens)
- Sequence (P48426 1-406): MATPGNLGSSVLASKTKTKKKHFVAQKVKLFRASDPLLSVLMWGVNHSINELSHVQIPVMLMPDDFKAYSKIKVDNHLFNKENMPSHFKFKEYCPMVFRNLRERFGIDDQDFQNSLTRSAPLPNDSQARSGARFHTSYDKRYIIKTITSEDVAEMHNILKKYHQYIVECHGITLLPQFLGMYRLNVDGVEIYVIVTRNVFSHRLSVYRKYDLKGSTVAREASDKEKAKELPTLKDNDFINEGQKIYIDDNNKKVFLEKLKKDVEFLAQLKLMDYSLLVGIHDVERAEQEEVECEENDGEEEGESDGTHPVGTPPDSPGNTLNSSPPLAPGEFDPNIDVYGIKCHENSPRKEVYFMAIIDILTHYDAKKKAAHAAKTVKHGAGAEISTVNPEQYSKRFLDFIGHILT
- experimental.protocol: biochemical
- settings: ADP-Glo pIC50 PI5P4Kα, Table S1, two decimals; asterisk not explained
quantity: IC50 (µM)

[[record]]
molecule = "CS(=O)(=O)c1ccc(Nc2ncnc3sc(-c4ccc(F)cc4F)cc23)cc1"
system = "PI5P4Kα (Homo sapiens)"
quantitative_readout = 1.1

[[record]]
molecule = "N#Cc1cc2c(Nc3ccc(S(=O)(=O)C4CCCC4)cc3)ncnc2s1"
system = "PI5P4Kα (Homo sapiens)"
quantitative_readout = 4.68

[[record]]
molecule = "CSc1ccc(Nc2ncnc3sc(-c4cccnc4Cl)cc23)cc1"
system = "PI5P4Kα (Homo sapiens)"
quantitative_readout = 0.229

[[record]]
molecule = "CS(=O)(=O)c1ccc(Nc2ncnc3sc(-c4cccnc4)cc23)cc1"
system = "PI5P4Kα (Homo sapiens)"
quantitative_readout = 4.57


A. CS(=O)(=O)c1ccc(Nc2ncnc3sc(-c4ccc(F)cc4)cc23)cc1
B. Cc1cc2c(Nc3ccc(N4CC(C)(C)CC4=O)cc3)ncnc2s1
Of the pair A and B , name the member with the lesser recorded IC50. Output the label that corresponds to your choice. B
(B: 1.17 µM, A: 9.77 µM)

====

- system: PI5P4Kα (Homo sapiens)
- experimental.protocol: biochemical
- settings: ADP-Glo pIC50 PI5P4Kα, Table S1, two decimals; asterisk not explained
quantity: IC50 (µM)

Reference set, count: 5
[[record]]
compound = "Cc1ccc(Nc2ncnc3sc(-c4cccnc4Cl)cc23)cc1"
unit_tag = "µM"
quantitative_readout = 0.263

[[record]]
compound = "CSc1ccc(Nc2ncnc3cc(-c4cccnc4C)sc23)cc1 [CSc1ccc(cc1)Nc1ncnc2cc(sc12)-c1cccnc1C]"
unit_tag = "µM"
quantitative_readout = 0.0776

[[record]]
compound = "Cc1c(C(=O)O)sc2ncnc(Nc3ccc(C(C)C)cc3)c12"
unit_tag = "µM"
quantitative_readout = 2.75

[[record]]
compound = "CSc1ccc(Nc2ncnc3sc(C)cc23)cc1"
unit_tag = "µM"
quantitative_readout = 2.34

[[record]]
compound = "COc1ccc(Nc2ncnc3sc(-c4ccncc4C)cc23)cc1"
unit_tag = "µM"
quantitative_readout = 0.708


P. CSc1ccc(Nc2ncnc3sc(-c4ccncc4C)cc23)cc1
Q. Cc1cnccc1-c1cc2c(Nc3ccc(S(C)(=O)=O)cc3)ncnc2s1
R. COc1cnccc1-c1cc2c(Nc3ccc(C)cc3C)ncnc2s1
S. Cc1cc2c(Nc3ccc(S(=O)(=O)C4CC4)cc3)ncnc2s1
T. CS(=O)(=O)c1ccc(Nc2ncnc3sc(-c4cnoc4)cc23)cc1
Please order the records by their reported IC50, lowest number first. The response must list the labels following the requested ordering. P, Q, T, R, S

a. CS(=O)(=O)c1ccc(Nc2ncnc3sc(-c4cccnc4F)cc23)cc1
b. Cc1ccc(Nc2ncnc3sc(-c4cccnc4Cl)cc23)cc1C
Larger number for IC50: a , or b ? Output the label that corresponds to your choice. a

I. CCc1cc2c(Nc3ccc(N4CCCC4=O)c(C)c3)ncnc2s1
II. Cc1cccc(Nc2ncnc3sc(-c4cccnc4Cl)cc23)c1
Of the pair I and II , name the member with the lesser recorded IC50. Output the label that corresponds to your choice. II

Just for reference, paper PMC10583824 is where these values come from.
